Test: amyloid nucleation score (Sup35N fusion, yeast selection) (log enrichment); library NNK2; higher = more nucleation; inactive = no reads after selection;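 further: zero at mode of non-aggregating sequences after 7 days selection at 30°C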
// thresholds for amyloid nucleation score classes: low-valued (below 0.007), mid-valued (0.007 to below 2), high-valued (2 or more)

INSERT INTO results (substance, class_assignment) VALUES
  ('SDGSGNGEWSEMQVLWTRSN', 'mid-valued'),
  ('WTPVDVLCMIGMRSVCYINM', 'mid-valued'),
  ('ILYSDFRMYSGRFLSEMVRI', 'mid-valued'),
  ('IDSVIKTEARGQGVVARTRA', 'mid-valued'),
  ('YNMIYYQLNTMLVHDMIKYG', 'high-valued');

Task: Which category does the recorded amyloid nucleation score put TGHKECVW in?
Output: mid-valued

Task: Which category does the recorded amyloid nucleation score put IVAFARVITLMRLLADGSTV in?
Output: mid-valued

Task: Which category does the recorded amyloid nucleation score put FTILRDFC in?
Output: mid-valued

Task: Which category does the recorded amyloid nucleation score put QGSNRACGLSEDCLFTV in?
Output: mid-valued

Task: Which category does the recorded amyloid nucleation score put CNFVTILLGMN in?
Output: high-valued

Task: Which category does the recorded amyloid nucleation score put PFSYFRWWPYRILAWSTWLV in?
Output: high-valued

Task: Which category does the recorded amyloid nucleation score put LRPDSNWTGVESLFR in?
Output: low-valued

Task: Which category does the recorded amyloid nucleation score put LSRESTCIFSMNKDVFS in?
Output: mid-valued

Task: Which category does the recorded amyloid nucleation score put CVDVDIKMLPGFCRCNIPLC in?
Output: low-valued

Task: Which category does the recorded amyloid nucleation score put VHELCTYNLFEPVCSLVWYR in?
Output: high-valued

Task: Which category does the recorded amyloid nucleation score put RGWCLDRPQYNVFRAMSRSL in?
Output: mid-valued

Task: Which category does the recorded amyloid nucleation score put TEEWFFCPRLTLKFLKEVHK in?
Output: high-valued

The values you see were collected from the supplement of paper PMC12042874.
